In this section, each of the molecules is paired with its reported IC50.
Test system: DV-90;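 further: Read-out is a viability assay, with IC50 reflecting the drop in DV-90 cell growth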
Test: cells
Type: functional, cell-based
Conditions: Homo sapiens
Description: SANGER: Inhibition of human DV-90 cell growth in a cell viability assay.
// units = nM; emit number, no label

- C/C=C(/C)C(=O)O[C@H]1C(C)=C2[C@H]([C@@H]1OC(=O)CCCCCCC)[C@@](C)(OC(C)=O)C[C@H](OC(=O)CCC)[C@@]1(O)[C@H]2OC(=O)[C@@]1(C)O: 28.8

Kindly consider the entry below.
Req: Supply recorded IC50 for CO[C@@]12[C@H](COC(N)=O)C3=C(C(=O)C(C)=C(N)C3=O)N1C[C@@H]1N[C@@H]12 here.
Resp: 2920
